Test system: PPARg:RXRa 270nM:90nM, anti-RXR (NR concentration 270 nM, RXRa partner concentration 90 nM)
Assay: PBM binding z-score (relative to random genomic background probes); higher = stronger binding; sequences stand for … in GC…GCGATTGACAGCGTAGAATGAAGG
measurement_type: PBM binding z-score
API note: the answer field is a bare number with no unit suffix.

> print(dat)
                     monomer.sequence  test.value
1  ATCGAAAGGTCGTGAGGTGAGTATGCAGAAAGGC        4.56

Q: Request the reported PBM binding z-score associated with "TCTCTGAGGACACGAAAGGTCAGAGCTCGACATC"
Result: 2.9

Q: Value lookup for PBM binding z-score; key = "TTACCAAGGTGAAGGTCGTTGGTCCCTCTGTAGA"
Result: 4.07

Q: Look up PBM binding z-score: "CCTTACGGGTCACGAGGTTATAGTACGACGAGCG"
Result: 6.66

Q: What PBM binding z-score value was documented for this sequence, "CAAACTAGTTCAAAGGTCAAAGTCGAGCCAACCA" ?
Result: 9.72

Q: Return reported PBM binding z-score; argument: "TAGCCTAGGTCATGGACCAGTATACCACGCGAAC"
Result: 3.32

Q: Quick check: PBM binding z-score of "CTACCAAGGTGAACAAGGTCGTTGAGTACTATTC" ?
Result: 1.24

Q: Report PBM binding z-score for "CGACCAAGGTCAGCAGGTCAGTGAAAGCGACGTG" please.
Result: 4.43

Q: Returns the measured PBM binding z-score for the input sequence. Input: "AGAACGAGGGCCCGCTGAGTTGATAGCAGAGTAG"
Result: -1.4

Q: Recorded PBM binding z-score for "ATCTCTAGGTAAAAGTTCAGAGAATCCCGAGGAT" , please?
Result: 7.88

Q: Quick check: PBM binding z-score of "GCGACTGGGCCATCAGCAGGTTACCATAACTTAA" ?
Result: -0.176

Q: // query PBM binding z-score value for entry "ACATACAGGTGATGAAGGTAACTCAGGCTATCAT"
Result: 0.534

* * *

System: PPARg:RXRa IVT, anti-PPARg (NR concentration 270 nM, RXRa partner concentration 90 nM)
Assay: PBM binding z-score (relative to random genomic background probes); higher = stronger binding; sequences stand for … in GC…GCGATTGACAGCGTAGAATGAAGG
measurement_type: PBM binding z-score
# answer = number (no unit)

Examples with their reported PBM binding z-score follow.
> print(dat)
                     monomer.sequence  test.value
1  CCTTACGGGTCACGAGGTTATAGCCCGACGAGCG        5.56
2  ATCGAAAGATCGTGAGGTGAGTATACAGAAAGGC       0.285
3  ATCTCTAGGTAAAGATAGTTCAGAGAATGCAAAT        1.42
4  AATACAGGGTCACTAGGCCAGGGTAGGTACGAAT           6
5  TCTCGGAGGACATGAAGGTCAGAGCTTTCCAGAG       0.772
6  ACTCGGAGGAGAAAGGTCAGAGCTACGCCAGTGA        1.73
7  GCTAGTTGGCCAGTAAAAGGTCACACACCGGTCG        1.78
8  CCAACTAGGTCAAAGGTCAAAGTCGAGCCAACCA        8.87

Q: Which PBM binding z-score is reported for this sequence? "CAAACTAGGTCACGGAAGGTCAAAGTCGAATGAC"
Result: 8.97

Q: // returns reported PBM binding z-score for input "GCTAGCATGCCATTTGGGTCACTCAATGACGGGC"
Result: 1.3

Q: Quick one: PBM binding z-score for "ACAAGCAGGCCAAGGGTCACTCAAGATTAGTCCG" ?
Result: 3.95

Q: # lookup: PBM binding z-score of "CAAACTAGGTCGAAGGTCAAAGTCGAGCCAACCA"
Result: 7.65

* * *

Test system: RARa homodimer (NR concentration 270 nM)
Assay: PBM binding z-score (relative to random genomic background probes); higher = stronger binding; sequences stand for … in GC…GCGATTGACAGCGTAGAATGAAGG
Returns Criterion met if the recorded PBM binding z-score is greater than or equal to 0.2, and Criterion not met otherwise.

> print(dat)
                     monomer.sequence       answer.label
1  CCGACTGGGGCAAGGTTGCCATAACGCACAGCCA  Criterion not met

Q: In plain terms: is recorded PBM binding z-score at least 0.2 for "ATCCAAAGGTCGAAGGTGAGTATACCCACCCGAA" ?
Result: Criterion met

Q: In plain terms: is recorded PBM binding z-score at least 0.2 for "CCAGACAGGTGGGAAGGTAACTCAGCCTCGATTA" ?
Result: Criterion met

Q: Evaluate "GGTGCTAGGTCAACTGATGGTCAGCTAAAGCTCG" : PBM binding z-score at minimum 0.2?
Result: Criterion met

Q: Decide: is the reported value of PBM binding z-score for "ACTATTAGTTGAGACGAGGGCAACCTATAGGTTG" equal to or greater than 0.2?
Result: Criterion met

Q: Exam item: decide whether the reported PBM binding z-score for "CGAACTAGGTCATGCAGGACAGTGAATACATTGA" is at least 0.2.
Result: Criterion met

* * *

Tested on: PPARg homodimer (NR concentration 180 nM)
Assay: PBM binding z-score (relative to random genomic background probes); higher = stronger binding; sequences stand for … in GC…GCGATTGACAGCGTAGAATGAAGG
Is PBM binding z-score at least 0.8? Then 1.0. If not, 0.0.

Examples from the recorded data:
> print(dat)
                     monomer.sequence  answer.label
1  TCGAGTAGGTTAGGGGCAGTCAGAATGGCGTCGA           0.0
2  TCATATAGGTAATATAGGTGAAAGTCGGCATCTA           1.0
3  GCAACGAGGGCAAAGTTGATAGCATCTGTCGACG           0.0
4  CAAACTAGGTCACAGAGGTCCAAGTCCGTGCGTA           1.0

Q: Item "GGAACGAGGGGAAGTTGATAGCAGAGTTTGATGG" with PBM binding z-score of 0.8 or above?
Result: 0.0

* * *

PBM binding z-score reference
Test system: PPARg:RXRa DBDmut IVT, anti-RXR (DBD mutation: RXRa K156A/R161A, NR concentration 270 nM, RXRa partner concentration 90 nM)
Experiment: PBM binding z-score (relative to random genomic background probes); higher = stronger binding; sequences stand for … in GC…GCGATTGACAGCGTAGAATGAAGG

Below: 5 sequences and their reported PBM binding z-score.
> print(dat)
                     monomer.sequence  test.value
1  ATATGTAGGATACATCCGGGTCATTCAGGCTATG        3.21
2  TATACAGGGTCAAAGGCCAGAGTGCGAATGTCGA        2.54
3  CGTCAAAGTTCAACTAAGGTAATGTAAAGCACGC       0.526
4  TCTGCTAGGTCAGTTGGTCACCTAACGAGCTGCC         2.8
5  CGAACTAGGTTAAGGACAGTGAATCTCCGCACGC        6.49

Moving on to the next sequence.
Q: What measured PBM binding z-score goes with "TCTTGTAGATCAAAGGTTAAGATAGCCGAAGCCT" ?
Result: 2.14

* * *

Tested on: PPARg:RXRa (NR concentration 180 nM, RXRa partner concentration 90 nM)
Experiment: PBM binding z-score (relative to random genomic background probes); higher = stronger binding; sequences stand for … in GC…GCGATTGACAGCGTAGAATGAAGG
Everything with PBM binding z-score lower than 1 is false (0); everything else, including exactly 1, is true (1).

# count of solved cases: 6
> print(dat)
                     monomer.sequence  answer.label
1  CCTAGCAGTCCAATCTGGGTCACTCAAGGCTTGA      true (1)
2  ACAGACAGGTGAGTGAAGGCAACTCAGCTGGACG     false (0)
3  CGACCGAGGGCATGAGTTGATAGCAAATGCCGAT     false (0)
4  ATTTCTAGGTAACAAGTTCAGTGAAAGAGAGGAC      true (1)
5  ACTAGTTGGTCAGCTGAGCTCACACACAATTCGG     false (0)
6  TCGAGTAGGTTAGTTGGGGCATTCAGCCAACATA     false (0)

Q: Is it the case that "CCTAGTTGGTCAGGAGGTCAGACACCGGATATGA" has PBM binding z-score reaching or exceeding 1?
Result: true (1)

Q: Hi team, for "ACCTCTAGGTAAGACTCAGTTCAGTGAAGAACGC" , is the recorded PBM binding z-score at or above 1?
Result: false (0)

Q: Can "TAGCCTAGGTCATTGCGCCAGTATAGTACGCATC" be said to have PBM binding z-score at or above 1?
Result: true (1)

Q: Does PBM binding z-score meet or surpass 1 for "ATCTCTAGGTAAAAGTTTAGTGAATCCCGAGGAT" ?
Result: true (1)

Q: PBM binding z-score >= 1 for "TCGAGTAGGTTAGGGGCATTCAGAATGGCGTCGA" ?
Result: false (0)

Q: Decide: PBM binding z-score of "AGAATTAGGTTATACGTAGATCAGGGAAGAAAGT" >= 1?
Result: true (1)

Q: Is the recorded value of PBM binding z-score equal to or greater than 1 for this sequence? "TCTATTAGTCGATTAGGGCAACCGAAACAGCGGA"
Result: false (0)

Q: Hello, I need to know if "CCTGCTAGGTCAATCGTCAGCTAAAGCAGCTCGC" has measured PBM binding z-score not below 1. Thanks!
Result: true (1)

Q: Record "TTACCTAGGTGAAGGTCGTTGATCCCTCTGTAGA" ; criterion: PBM binding z-score no lower than 1. Met?
Result: true (1)

Q: Hi team, for "TCTCGGAGGACACGAAAGGTCAGCGCTCGACATC" , is the recorded PBM binding z-score at or above 1?
Result: true (1)

Q: Identify whether the reported PBM binding z-score of the following sequence is 1 or greater: "CCTTACGGGTCATGAGGTTATAGCACGACGAGCG"
Result: true (1)

Q: Determine whether this sequence has PBM binding z-score no lower than 1: "AGAACGAGGGCATGCTGAGTTGATAGCAGAGTAG"
Result: false (0)

Q: Is it the case that "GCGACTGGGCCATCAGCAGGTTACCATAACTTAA" has PBM binding z-score reaching or exceeding 1?
Result: false (0)

Q: Could you please find out whether "ATATGTAGGTTAGCTGTGGTCATTCAGACTAGGC" has PBM binding z-score that meets 1 or exceeds it?
Result: true (1)
